# Tgt: T1, nfP2X7 CAR 1
# T1 construct: Expressed on T cells with truncated EGFR as marker gene; also called anti-nfP2X7 receptor CAR 1; nfP2X7 targeted CAR on EGFR+ T cells
# Assay: flow cytometry, CAR T cells, anti-His-FITC, EGFR+ MFI over background 0.4
# Protocol: nfP2X₇ CAR T cells were incubated with different BRiDGE variants at saturating concentrations. […] The MFI intensity correlates with the number of secondary bound antibodies bound to the BRiDGEs that are only detected if they are bound to the CAR T cells. EGFR was used as a marker gene to detect the CAR expression. Thus, the EGFR+ T cell population was defined as the CAR expressing cells and the EGFR− T cell population was defined as the CAR negative subset. MFI: median fluorescence intensity. […]
Param label: returns y when HisTag MFI Ratio (background 0.4) < 3, returns n otherwise, including exact equality.

INSERT INTO assay_data (binder, category_label) VALUES
  ('CD33 BRIDGE variant B7 (Fab, V domains shown, Lintuzumab-based Fab bridging molecule) VH: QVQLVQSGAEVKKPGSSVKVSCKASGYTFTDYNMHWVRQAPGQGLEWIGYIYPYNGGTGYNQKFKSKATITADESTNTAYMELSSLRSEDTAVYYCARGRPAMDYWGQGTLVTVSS VL: DIQMTQSPSSLSASVGDRVTITCRASESVDNYGISFMNWFQQKPGKAPKLLIYAASNQGSGVPSRFSGSGSGTDFTLTISSLQPDDFATYYCQQSKEVPWTFGQGTKVEIKR', 'n'),
  ('CD33 BRIDGE variant B8 (Fab, V domains shown, Lintuzumab-based Fab bridging molecule) VH: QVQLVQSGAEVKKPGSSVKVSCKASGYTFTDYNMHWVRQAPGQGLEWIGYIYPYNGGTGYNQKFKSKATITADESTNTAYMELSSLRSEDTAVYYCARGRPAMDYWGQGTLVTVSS VL: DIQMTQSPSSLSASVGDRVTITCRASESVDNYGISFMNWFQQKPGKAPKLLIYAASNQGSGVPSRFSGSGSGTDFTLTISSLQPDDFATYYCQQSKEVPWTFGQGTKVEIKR', 'n'),
  ('CD33 BRIDGE variant B19 (Fab, V domains shown, Lintuzumab-based Fab bridging molecule) VH: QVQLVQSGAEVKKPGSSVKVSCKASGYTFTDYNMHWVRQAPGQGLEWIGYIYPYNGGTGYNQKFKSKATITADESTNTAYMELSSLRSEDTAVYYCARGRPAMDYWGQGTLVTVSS VL: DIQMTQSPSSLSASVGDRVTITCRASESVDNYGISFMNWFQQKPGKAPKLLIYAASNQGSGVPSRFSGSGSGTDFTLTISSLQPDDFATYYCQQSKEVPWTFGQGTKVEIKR', 'n'),
  ('CD33 BRIDGE variant B25 (Fab, V domains shown, Lintuzumab-based Fab bridging molecule) VH: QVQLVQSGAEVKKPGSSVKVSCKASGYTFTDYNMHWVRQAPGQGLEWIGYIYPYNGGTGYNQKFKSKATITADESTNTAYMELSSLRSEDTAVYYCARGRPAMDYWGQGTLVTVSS VL: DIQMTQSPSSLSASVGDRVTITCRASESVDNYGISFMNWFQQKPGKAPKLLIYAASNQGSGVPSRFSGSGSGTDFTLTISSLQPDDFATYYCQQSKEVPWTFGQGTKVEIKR', 'n'),
  ('CD33 BRIDGE variant B2 (Fab, V domains shown, Lintuzumab-based Fab bridging molecule) VH: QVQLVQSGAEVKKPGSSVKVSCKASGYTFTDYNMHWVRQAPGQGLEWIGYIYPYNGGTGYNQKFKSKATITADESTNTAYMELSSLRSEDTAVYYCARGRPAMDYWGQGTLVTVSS VL: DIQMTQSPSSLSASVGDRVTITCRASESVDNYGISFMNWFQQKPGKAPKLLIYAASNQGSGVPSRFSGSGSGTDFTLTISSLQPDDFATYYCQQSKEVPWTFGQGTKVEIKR', 'y');
